Test system: AsPC-1 cells
assay_notes: MTT cellular proliferation assay, AsPC-1 pancreatic adenocarcinoma cells
Assay type: cell-based, human
reported_conditions: AsPC-1, 48 h, 37 °C, MTT, mean ± SD (3 experiments)
pIC50: −log10 of the molar value.
assay_endpoint: pIC50

a = CCN(C)C([S-])=NN=C(c1ccccn1)c1ccccn1.CCN(C)C([S-])=NN=C(c1ccccn1)c1ccccn1.[Ni+2] [[Ni(Dp4e4mT)2]]
b = CCN(C)C([S-])=NN=C(c1ccccn1)c1ccccn1.[Cl-].[Cu+2] [[Cu(Dp4e4mT)Cl]]
c = CCN(C)C([S-])=NN=C(c1ccccn1)c1ccccn1.CCN(C)C([S-])=NN=C(c1ccccn1)c1ccccn1.[Co+3] [[Co(Dp4e4mT)2]^+]
(Q) Kindly provide a descending ordering of the above molecules based on their pIC50. Respond with the label ranking, as requested.
(A) b, a, c
(b: 7.38, a: 6.63, c: 5.57)

====

Test system: AsPC-1 cells
assay_notes: MTT cellular proliferation assay, AsPC-1 pancreatic adenocarcinoma cells
Assay type: cell-based, human
reported_conditions: AsPC-1, 72 h, 37 °C, MTT, mean ± SD (3 experiments)
pIC50: −log10 of the molar value.
assay_endpoint: pIC50

Use the examples below as a reference point.
CCN(C)C([S-])=NN=C(c1ccccn1)c1ccccn1.CCN(C)C([S-])=NN=C(c1ccccn1)c1ccccn1.[Ga+3] [[Ga(Dp4e4mT)2]^+] :: 8.30
CCN(C)C([S-])=NN=C(c1ccccn1)c1ccccn1.[Cl-].[Cu+2] [[Cu(Dp4e4mT)Cl]] :: 8.52
CCN(C)C([S-])=NN=C(c1ccccn1)c1ccccn1.CCN(C)C([S-])=NN=C(c1ccccn1)c1ccccn1.[Fe+3] [[Fe(Dp4e4mT)2]^+] :: 6.70

a = CCN(C)C([S-])=NN=C(c1ccccn1)c1ccccn1.CCN(C)C([S-])=NN=C(c1ccccn1)c1ccccn1.[Ni+2] [[Ni(Dp4e4mT)2]]
b = CCN(C)C([S-])=NN=C(c1ccccn1)c1ccccn1.CCN(C)C([S-])=NN=C(c1ccccn1)c1ccccn1.[Cu+2] [[Cu(Dp4e4mT)2]]
c = CCN(C)C([S-])=NN=C(c1ccccn1)c1ccccn1.[Cl-].[Pd+2] [[Pd(Dp4e4mT)Cl]]
d = CCN(C)C([S-])=NN=C(c1ccccn1)c1ccccn1.CCN(C)C([S-])=NN=C(c1ccccn1)c1ccccn1.[Co+3] [[Co(Dp4e4mT)2]^+]
(Q) rank_up(items): orders items by reported pIC50 in ascending numerical order. Give the labels in the order specified.
(A) d, c, a, b

====

Tested on: AsPC-1 cells
assay_notes: MTT cellular proliferation assay, AsPC-1 pancreatic adenocarcinoma cells
Assay type: cell-based, human
reported_conditions: IC50 of MRC-5 cells/IC50 of AsPC-1 cells, 72 h/37 °C
assay_endpoint: Therapeutic index AsPC-1
Keep it simple and answer with nothing but the number.

As a guide, the following entries are already answered.
CCN(C)C([S-])=NN=C(c1ccccn1)c1ccccn1.CCN(C)C([S-])=NN=C(c1ccccn1)c1ccccn1.[Cu+2] [[Cu(Dp4e4mT)2]] :: 113
CCN(C)C([S-])=NN=C(c1ccccn1)c1ccccn1.CCN(C)C([S-])=NN=C(c1ccccn1)c1ccccn1.[Ni+2] [[Ni(Dp4e4mT)2]] :: 62
CCN(C)C([S-])=NN=C(c1ccccn1)c1ccccn1.CCN(C)C([S-])=NN=C(c1ccccn1)c1ccccn1.[Ga+3] [[Ga(Dp4e4mT)2]^+] :: 154

(Q) Can you look up the measured Therapeutic index AsPC-1 of CN(C(=S)NN=C(c1ccccn1)c1ccccn1)C1CCCCC1 [DpC, reference compound] for me?
(A) 165

(Q) Repeat with CCN(C)C([S-])=NN=C(c1ccccn1)c1ccccn1.CCN(C)C([S-])=NN=C(c1ccccn1)c1ccccn1.[Co+3] [[Co(Dp4e4mT)2]^+]
(A) 2
